# SUBJECT_OF_TEST: Recombinant Human 5′-Nucleotidase (CD73) (Homo sapiens, UniProt P21589)
# Construct: CHO derived CD73 (Trp27-Lys547), with a C-terminal 6-His tag; 6-His (C)
# ASSAY_SUMMARY: CD73 Enzyme Assay (PiColorLock inorganic phosphate detection, AMP substrate)
# CONDITION_DETAILS: human CD73 0.5 nM, AMP 30 μM, 20 min at 37° C., absorbance 635 nm; read-out: Potency (IC50)
pIC50: −log10 of the molar value.
# pIC50 values compiled below

Sample records with pIC50:
[[record]]
molecule = "O=P(O)(O)CP(=O)(O)OC[C@H]1OC(c2cnc3c(N4CCC(F)(F)C4)cc(Cl)nn23)[C@@H](F)[C@@H]1O (some centres unmarked) [Example S22]"
result = "7.00 to 8.00"

[[record]]
molecule = "O=P(O)(O)CP(=O)(O)OC[C@H]1OC(c2cnc3c(N4CC5CC5C4)cc(Cl)nn23)[C@H](O)[C@@H]1O (some centres unmarked) [Example S23]"
result = "> 9.00"

[[record]]
molecule = "O=P(O)(O)CP(=O)(O)OC[C@H]1O[C@H](c2csc3c(NC4CCCC4)nc(Cl)nc23)[C@H](O)[C@@H]1O [Example S11]"
result = "7.00 to 8.00"

[[record]]
molecule = "O=P(O)(O)CP(=O)(O)OC[C@H]1O[C@@H](c2ncc3c(N4CCC[C@H]4c4ccccc4)cc(Cl)nn23)[C@H](O)[C@@H]1O [Example S8]"
result = "8.00 to 9.00"


# input for lookup
Please give the measured pIC50 for this molecule: C[C@H](Nc1cc(Cl)nn2c(C3O[C@H](COP(=O)(O)CP(=O)(O)O)[C@@H](O)[C@H]3O)cnc12)c1ccccc1 (some centres unmarked) [Example S18] 8.00 to 9.00

###

# SUBJECT_OF_TEST: Recombinant Human 5′-Nucleotidase (CD73) (Homo sapiens)
# Construct: CHO derived CD73 (Trp27-Lys547), with a C-terminal 6-His tag; 6-His (C)
# ASSAY_SUMMARY: CD73 Enzyme Assay (PiColorLock inorganic phosphate detection, AMP substrate)
# CONDITION_DETAILS: human CD73 0.5 nM, AMP 30 μM, 20 min at 37° C., absorbance 635 nm; read-out: Potency (IC50)
pIC50: −log10 of the molar value.
MEASURED_ATTRIBUTE: pIC50

Sample records with pIC50:
[[record]]
compound = "O=P(O)(O)CP(=O)(O)OC[C@H]1OC(c2cnc3c(N4CCc5ccccc54)cc(Cl)nn23)[C@H](O)[C@@H]1O (stereo partly drawn)"
measured_attribute = "pIC50"
result = "8.00 to 9.00"

[[record]]
compound = "O=P(O)(O)CP(=O)(O)OC[C@H]1OC(c2cnc3c(NC4CCOC4)cc(Cl)nn23)[C@H](O)[C@@H]1O (stereo partly drawn)"
measured_attribute = "pIC50"
result = "8.00 to 9.00"

[[record]]
compound = "O=P(O)(O)CP(=O)(O)OC[C@H]1O[C@@H](c2ncc3c(N4CC5CC5C4)cc(Cl)nn23)[C@H](O)[C@@H]1O (stereo partly drawn)"
measured_attribute = "pIC50"
result = "8.00 to 9.00"

[[record]]
compound = "O=P(O)(O)CP(=O)(O)OC[C@H]1O[C@@H](c2ncc3c(N4CCc5ccccc54)cc(Cl)nn23)[C@H](O)[C@@H]1O"
measured_attribute = "pIC50"
result = "8.00 to 9.00"

[[record]]
compound = "O=P(O)(O)CP(=O)(O)OC[C@H]1O[C@@H](c2csc3c(NC4CCCC4)nc(Cl)nc23)[C@H](O)[C@@H]1O"
measured_attribute = "pIC50"
result = "> 9.00"


# input for lookup
Please give the measured pIC50 for this compound: O=P(O)(O)CP(=O)(O)OC[C@H]1O[C@@H](c2csc3c(N4CC5CCCC5C4)cc(Cl)nc23)[C@@H](F)[C@@H]1O (stereo partly drawn) 7.00 to 8.00

###

# SUBJECT_OF_TEST: Recombinant Human 5′-Nucleotidase (CD73) (Homo sapiens, UniProt P21589)
# Construct: CHO derived CD73 (Trp27-Lys547), with a C-terminal 6-His tag; 6-His (C)
# Sequence (P21589 27-547): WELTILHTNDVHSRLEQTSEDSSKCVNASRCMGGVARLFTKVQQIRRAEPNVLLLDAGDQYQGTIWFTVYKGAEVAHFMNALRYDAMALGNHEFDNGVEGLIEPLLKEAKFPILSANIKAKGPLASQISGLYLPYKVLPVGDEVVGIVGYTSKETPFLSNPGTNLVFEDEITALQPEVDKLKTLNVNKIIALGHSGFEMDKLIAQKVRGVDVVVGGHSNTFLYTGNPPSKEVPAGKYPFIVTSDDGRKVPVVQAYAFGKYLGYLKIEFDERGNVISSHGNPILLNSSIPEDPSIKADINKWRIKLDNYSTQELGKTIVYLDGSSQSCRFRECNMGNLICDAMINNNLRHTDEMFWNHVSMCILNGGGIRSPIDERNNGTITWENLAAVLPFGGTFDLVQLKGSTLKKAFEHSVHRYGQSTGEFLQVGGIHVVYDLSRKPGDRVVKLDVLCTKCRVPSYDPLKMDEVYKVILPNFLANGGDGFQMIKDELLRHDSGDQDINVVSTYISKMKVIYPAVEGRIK
# ASSAY_SUMMARY: CD73 Enzyme Assay (PiColorLock inorganic phosphate detection, AMP substrate)
# CONDITION_DETAILS: human CD73 0.5 nM, AMP 30 μM, 20 min at 37° C., absorbance 635 nm; read-out: Potency (IC50)
# Description: Soluble recombinant CD73 catalyzes the conversion of adenosine monophosphate (AMP) to adenosine and inorganic phosphate. The phosphate detection reagent, PiColorLock™ (Innova Bioscience, Cat #303-0125) is based on the change in absorbance of the dye malachite green in the presence of inorganic phosphate (Pi) and this property can be exploited to measure any enzyme that generates Pi. […] After incubation the absorbance of the solution is read at OD 635 nm. […]
pIC50: −log10 of the molar value.
MEASURED_ATTRIBUTE: pIC50

Please give the measured pIC50 for this molecule: C[C@H](Nc1cc(Cl)nn2c(C3O[C@H](COP(=O)(O)CP(=O)(O)O)[C@@H](O)[C@@H]3F)cnc12)c1ccccc1F (some centres unmarked) [Example S19] 7.00 to 8.00

Please give the measured pIC50 for this molecule: O=P(O)(O)CP(=O)(O)OC[C@H]1O[C@@H](c2cnc3c(NC45CCC(CC4)C5)cc(Cl)nn23)[C@H](O)[C@@H]1O [Example S33] 8.00 to 9.00

Please give the measured pIC50 for this molecule: O=P(O)(O)CP(=O)(O)OC[C@H]1OC(c2cnc3c(N4CCCCC4)cc(Cl)nn23)[C@H](O)[C@@H]1O (some centres unmarked) [Example S26] 8.00 to 9.00

Please give the measured pIC50 for this molecule: O=P(O)(O)CP(=O)(O)OC[C@H]1O[C@@H](c2csc3c(N4CCCC4)cc(Cl)nc23)[C@H](O)[C@@H]1O [Example S42] 8.00 to 9.00

Please give the measured pIC50 for this molecule: C[C@H](Nc1cc(Cl)nn2c(C3O[C@H](COP(=O)(O)CP(=O)(O)O)[C@@H](O)[C@H]3O)cnc12)c1ccc(F)cc1 (some centres unmarked) [Example S17] > 9.00

Please give the measured pIC50 for this molecule: O=P(O)(O)CP(=O)(O)OC[C@H]1O[C@@H](c2ncc3c(N4CC5CCCC5C4)cc(Cl)nn23)[C@H](O)[C@@H]1O (some centres unmarked) [Example S9] > 9.00

Please give the measured pIC50 for this molecule: O=P(O)(O)CP(=O)(O)OC[C@H]1O[C@@H](c2ncc3c(N4CCCC4)cc(Cl)nn23)[C@H](O)[C@@H]1O [Example S38] 8.00 to 9.00

Please give the measured pIC50 for this molecule: CN(c1cc(Cl)nn2c([C@@H]3O[C@H](COP(=O)(O)CP(=O)(O)O)[C@@H](O)[C@H]3O)cnc12)C1CCCC1 [Example S32] 8.00 to 9.00

Please give the measured pIC50 for this molecule: C[C@H](Nc1cc(Cl)nn2c(C3O[C@H](COP(=O)(O)CP(=O)(O)O)[C@@H](O)[C@H]3O)cnc12)c1cccc(F)c1 (some centres unmarked) [Example S16] 8.00 to 9.00

Please give the measured pIC50 for this molecule: O=P(O)(O)CP(=O)(O)OC[C@H]1OC(c2cnc3c(NCc4ccccc4)cc(Cl)nn23)[C@H](O)[C@@H]1O (some centres unmarked) [Example S14] 8.00 to 9.00

Please give the measured pIC50 for this molecule: O=P(O)(O)CP(=O)(O)OC[C@H]1O[C@@H](c2cnc3c(NC4CC5CCC4C5)cc(Cl)nn23)[C@H](O)[C@@H]1O (some centres unmarked) [Example S6] 8.00 to 9.00

Please give the measured pIC50 for this molecule: O=P(O)(O)CP(=O)(O)OC[C@H]1OC(c2cnc3c(N4CCCC[C@H]4c4ccccc4)cc(Cl)nn23)[C@H](O)[C@@H]1O (some centres unmarked) [Example S27] 8.00 to 9.00

Please give the measured pIC50 for this molecule: C[C@H](Nc1cc(Cl)nn2c([C@@H]3O[C@H](COP(=O)(O)CP(=O)(O)O)[C@@H](O)[C@H]3O)cnc12)c1ccccc1F [Example S2] 8.00 to 9.00

Please give the measured pIC50 for this molecule: O=P(O)(O)CP(=O)(O)OC[C@H]1OC(c2cnc3c(N4CCC(F)(F)CC4)cc(Cl)nn23)[C@H](O)[C@@H]1O (some centres unmarked) [Example S29] 8.00 to 9.00

Please give the measured pIC50 for this molecule: O=P(O)(O)CP(=O)(O)OC[C@H]1OC(c2cnc3c(N4CCCC4)cc(Cl)nn23)[C@H](O)[C@@H]1O (some centres unmarked) [Example S20] 8.00 to 9.00

Please give the measured pIC50 for this molecule: O=P(O)(O)CP(=O)(O)OC[C@H]1O[C@@H](c2cnc3c(N4CCC[C@H]4c4ccccc4F)cc(Cl)nn23)[C@H](O)[C@@H]1O [Example S34] 8.00 to 9.00

Please give the measured pIC50 for this molecule: C[C@H](Nc1cc(Cl)nn2c([C@@H]3O[C@H](COP(=O)(O)CP(=O)(O)O)[C@@H](O)[C@H]3O)ncc12)c1ccccc1F [Example S37] 8.00 to 9.00

Please give the measured pIC50 for this molecule: O=P(O)(O)CP(=O)(O)OC[C@H]1O[C@@H](c2csc3c(N4CC5CCCC5C4)nc(Cl)nc23)[C@H](O)[C@@H]1O (some centres unmarked) [Example S41] 7.00 to 8.00

Ref: patent US20230033360A1
